Provenance of the data: paper PMC10447463

Each entry below carries its reported Tht category (> 2 to blank = +).
Format: physicochemical
Conditions: Fig S10 panel D

Answered examples (10):
substance=CKFKFQF property_measured="Tht category (> 2 to blank = +)" result="1 (ThT. Cat is 1, if Rel. ThT >2)"
substance=ILKNLSRSRKIKIQIC property_measured="Tht category (> 2 to blank = +)" result="1 (ThT. Cat is 1, if Rel. ThT >2)"
substance=KIKIQINMWQRGD property_measured="Tht category (> 2 to blank = +)" result="0 (ThT-inactive (N-Fold <2))"
substance=RGDSKIKIQIC property_measured="Tht category (> 2 to blank = +)" result="1 (ThT. Cat is 1, if Rel. ThT >2)"
substance=HGEHGE property_measured="Tht category (> 2 to blank = +)" result="0 (ThT-inactive (N-Fold <2))"
substance=KIKIKIQINMWQ property_measured="Tht category (> 2 to blank = +)" result="0 (ThT-inactive (N-Fold <2))"
substance=RGDCKFKFQF property_measured="Tht category (> 2 to blank = +)" result="1 (ThT. Cat is 1, if Rel. ThT >2)"
substance=KVKGVGK property_measured="Tht category (> 2 to blank = +)" result="0 (ThT-inactive (N-Fold <2))"
substance=KIKQIINMWQ property_measured="Tht category (> 2 to blank = +)" result="1 (ThT. Cat is 1, if Rel. ThT >2)"
substance=NMWQKIKIQI property_measured="Tht category (> 2 to blank = +)" result="1 (ThT. Cat is 1, if Rel. ThT >2)"

[Q] Any idea what Tht category (> 2 to blank = +) was measured for PPFHPPPFHP ?
[A] 0 (ThT-inactive (N-Fold <2))

[Q] Given KIKIQIII , state its recorded Tht category (> 2 to blank = +).
[A] 1 (ThT. Cat is 1, if Rel. ThT >2)

[Q] Item under review: CKIKIQIRGD . Reported Tht category (> 2 to blank = +)?
[A] 0 (ThT-inactive (N-Fold <2))

[Q] What value of Tht category (> 2 to blank = +) has been reported for the following substance? KIKIKIKIWWWW
[A] 1 (ThT. Cat is 1, if Rel. ThT >2)

[Q] # query: Tht category (> 2 to blank = +) of entry KIKIQINMWQ
[A] 1 (ThT. Cat is 1, if Rel. ThT >2)

[Q] Please give the measured Tht category (> 2 to blank = +) for this substance: RGDKIKIQINMWQ
[A] 0 (ThT-inactive (N-Fold <2))

[Q] Would you mind telling me what Tht category (> 2 to blank = +) value was observed for CKIKIQINMWQ ?
[A] 1 (ThT. Cat is 1, if Rel. ThT >2)

[Q] Item KFKFQF has what recorded Tht category (> 2 to blank = +)?
[A] 0 (ThT-inactive (N-Fold <2))

[Q] # lookup: Tht category (> 2 to blank = +) of CRFRFQF
[A] 1 (ThT. Cat is 1, if Rel. ThT >2)

[Q] Bench note: what Tht category (> 2 to blank = +) did QCKIKQIINMWQ [reference compound] show?
[A] 1 (ThT. Cat is 1, if Rel. ThT >2)
